Molecular target: T1, recombinant human B7-H4-huIgG1 (human)
T1 construct: also called B7-H4-extracellular domain (ECD)
T1 sequence (chain, as listed by the source limits assumed): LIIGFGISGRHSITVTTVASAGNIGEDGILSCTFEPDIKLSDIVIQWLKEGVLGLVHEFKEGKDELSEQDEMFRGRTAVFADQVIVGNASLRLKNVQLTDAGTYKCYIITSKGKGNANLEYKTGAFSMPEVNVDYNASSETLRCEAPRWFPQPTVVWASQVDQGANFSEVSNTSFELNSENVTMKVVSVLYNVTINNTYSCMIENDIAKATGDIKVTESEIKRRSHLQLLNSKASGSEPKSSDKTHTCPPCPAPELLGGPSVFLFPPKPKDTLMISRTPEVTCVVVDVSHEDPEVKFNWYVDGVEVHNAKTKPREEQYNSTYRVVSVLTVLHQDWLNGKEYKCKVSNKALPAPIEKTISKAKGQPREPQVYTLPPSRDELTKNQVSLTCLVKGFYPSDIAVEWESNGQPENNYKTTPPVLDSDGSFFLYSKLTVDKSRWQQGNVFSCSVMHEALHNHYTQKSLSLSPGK
Test: BLI, antigen on Protein A tips;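 note: Anti-B7-H4 antibodies assessed for affinity toward the B7-H4 extracellular domain using biolayer interferometry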

{"binder": "B7-H4 antibody 15465 (antibody, human IgG1, kappa, V domains shown, human IgG1/kappa) VH: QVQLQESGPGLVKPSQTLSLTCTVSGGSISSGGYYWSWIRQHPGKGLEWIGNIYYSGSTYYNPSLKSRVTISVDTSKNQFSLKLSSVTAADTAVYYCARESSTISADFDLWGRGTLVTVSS VL: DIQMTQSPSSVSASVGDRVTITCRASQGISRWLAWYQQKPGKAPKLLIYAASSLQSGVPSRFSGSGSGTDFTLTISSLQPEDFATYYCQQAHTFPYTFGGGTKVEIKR", "koff, s⁻¹": 0.0248}
{"binder": "B7-H4 antibody 22216 (antibody, human IgG1, kappa, V domains shown, human IgG1/kappa) VH: QVQLQESGPGLVKPSQTLSLTCTVSGGSISDGSYYWSWIRQHPGKGLEWIGNIYYSGSTYYNPSLRSRVTMSVDTSKNQFSLKLSSVTAADTAVYYCARGLSTIDEAFDPWGQGTLVTVSS VL: DIQMTQSPSTLSASVGDRVTITCRASKSISSWLAWYQQKPGKAPKLLIYEASSLHSGVPSRFSGSGSGTEFTLTISSLQPDDFATYYCQQDNSYPYTFGGGTKVEIKR", "koff, s⁻¹": 0.000359}
{"binder": "B7-H4 antibody 15461 (antibody, human IgG1, kappa, V domains shown, human IgG1/kappa) VH: QLQLQESGPGLVKPSETLSLTCTVSGGSISSSSYYWGWIRQPPGKGLEWIGNIYYSGSTYYNPSLKSRVTISVDTSKNQFSLKLSSVTAADTAVYYCAREGSYPNWFDPWGQGTLVTVSS VL: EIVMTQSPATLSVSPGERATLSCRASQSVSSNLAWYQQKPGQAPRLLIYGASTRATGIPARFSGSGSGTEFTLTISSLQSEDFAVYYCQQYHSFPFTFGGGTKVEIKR", "koff, s⁻¹": 0.024}
